# Test system: E. coli ATCC25922 strain
# experiment_notes: MIC 50, broth micro-dilution, wild-type Escherichia coli
# Assay type: cell-based
# test_context: MH2, 18 h
property_measured: MIC50 (µM)

# molecule, assayed_target, endpoint_value
records = [
    ("N=C(N)NC1[C@@H](O)C(OC2[C@@H](O)[C@H](O[C@H]3OC(CN)[C@@H](O)[C@H](O)C3N)C(N)C[C@H]2NC(=O)[C@@H](O)CCN)O[C@H](CO)[C@H]1O (some centres unmarked)", "E. coli ATCC25922 strain", 2),
    ("NCCC(O)C(=O)NC1CC(N)C(OC2OC(CN)C(O)C(O)C2N)C(O)C1OC1OC(CO)C(O)C(N)C1O (centres unmarked)", "E. coli ATCC25922 strain", 2),
    ("NCC[C@H](O)C(=O)N[C@@H]1CC(N)[C@@H](O[C@H]2OC(CN)[C@@H](O)CC2N)[C@H](F)C1OC1O[C@H](CO)[C@@H](O)C(N)[C@H]1O (some centres unmarked)", "E. coli ATCC25922 strain", 1),
]

====

We begin with a simple list: items and their reported MIC90.
# Test system: clinical isolates of Vancomycin-resistant Enterococcus faecium (VRE)
# experiment_notes: MIC determination at Fidelta, clinical isolates
# Assay type: cell-based
# test_context: VRE-2006, Urine

# compound, comparator, MIC90, µg/mL
records = [
    ("CC(C)(O/N=C(\\C(=O)N[C@@H]1C(=O)N2C(C(=O)[O-])=C(C[n+]3ccccc3)CS[C@H]12)c1csc(N)n1)C(=O)O [Ceftazidime, reference compound]", ">", 64),
    ("N=C(NC[C@@H]1CCNC1)NC1[C@@H](O)C(OC2[C@@H](F)[C@H](O[C@H]3OC(CN)[C@@H](O)CC3N)C(N)C[C@H]2NC(=O)[C@@H](O)CCN)O[C@H](CO)[C@H]1O (stereo partly drawn)", "=", 16),
    ("NCC[C@H](O)C(=O)N[C@@H]1C[C@H](N)[C@@H](O[C@H]2O[C@H](CN)[C@@H](O)[C@H](O)[C@H]2O)[C@H](O)[C@H]1O[C@H]1O[C@H](CO)[C@@H](O)[C@H](N)[C@H]1O [Amikacin, amikacin, reference compound]", ">", 64),
    ("N=C(N)NC1C(O)[C@@H](CO)OC(OC2C(F)[C@H](O[C@H]3OC(CN)[C@@H](O)CC3N)C(N)C[C@H]2NC(=O)[C@@H](O)CCN)[C@@H]1O (stereo partly drawn)", "=", 32),
    ("N=C(NC[C@@H]1CCCN1)NC1[C@@H](O)C(OC2[C@@H](F)[C@H](O[C@H]3OC(CN)[C@@H](O)CC3N)C(N)C[C@H]2NC(=O)[C@@H](O)CCN)O[C@H](CO)[C@H]1O (stereo partly drawn)", "=", 8),
    ("C[C@@H](O)[C@H]1C(=O)N2C(C(=O)O)=C(S[C@@H]3CN[C@H](C(=O)N(C)C)C3)[C@H](C)[C@H]12 [Meropenem, meropenem, reference compound]", ">", 64),
]

====

We begin with a simple list: items and their reported MIC90.
# Tested on: clinical isolates of multidrug-resistant Acinetobacter baumannii (and ATCC17978)
# experiment_notes: MIC determination at Fidelta, clinical isolates
# Format: cell-based
# test_context: AB-2018; Skin/CRAB

# compound, assayed_target, quantity_unit, MIC90
measured = [
    ("N=C(NC[C@@H]1CCCN1)NC1[C@@H](O)C(OC2[C@@H](F)[C@H](O[C@H]3OC(CN)[C@@H](O)CC3N)C(N)C[C@H]2NC(=O)[C@@H](O)CCN)O[C@H](CO)[C@H]1O (stereo partly shown)", "clinical isolates of multidrug-resistant Acinetobacter baumannii (and ATCC17978)", "µg/mL", 1),
    ("N=C(N)NC1C(O)[C@@H](CO)OC(OC2C(F)[C@H](O[C@H]3OC(CN)[C@@H](O)CC3N)C(N)C[C@H]2NC(=O)[C@@H](O)CCN)[C@@H]1O (stereo partly shown)", "clinical isolates of multidrug-resistant Acinetobacter baumannii (and ATCC17978)", "µg/mL", 1),
    ("N=C(NCCN)NC1C(O)[C@@H](CO)OC(OC2C(F)[C@H](O[C@H]3OC(CN)[C@@H](O)CC3N)C(N)C[C@H]2NC(=O)[C@@H](O)CCN)[C@@H]1O (stereo partly shown)", "clinical isolates of multidrug-resistant Acinetobacter baumannii (and ATCC17978)", "µg/mL", 2),
    ("N=C(NC[C@@H]1CCNC1)NC1[C@@H](O)C(OC2[C@@H](F)[C@H](O[C@H]3OC(CN)[C@@H](O)CC3N)C(N)C[C@H]2NC(=O)[C@@H](O)CCN)O[C@H](CO)[C@H]1O (stereo partly shown)", "clinical isolates of multidrug-resistant Acinetobacter baumannii (and ATCC17978)", "µg/mL", 1),
]
